Each entry below carries its reported aptazyme ON/OFF ratio.
B1: Pistol ribozyme (parent)
chain: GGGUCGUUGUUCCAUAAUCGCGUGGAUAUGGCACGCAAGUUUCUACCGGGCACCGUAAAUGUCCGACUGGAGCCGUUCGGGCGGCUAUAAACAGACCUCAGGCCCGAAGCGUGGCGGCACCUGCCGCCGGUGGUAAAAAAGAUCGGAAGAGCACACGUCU

Variants of: B1
TEST DESCRIPTION: aptazyme ON/OFF ratio, guanine; higher = stronger switching; co-transcriptional cleavage with and without guanine
OBSERVATION TYPE: aptazyme ON/OFF ratio

INSERT INTO assay_data (mutations, measured) VALUES
  ('U7A U8C U11C C12A C13A', 1.44),
  ('U8C G9U U10G U11C C12A C13G', 1.19),
  ('U7G U8G U10C U11G C12A C13A', 1.15),
  ('U7G U8G G9A U10A C12U C13U', 1.35),
  ('U7G G9C U11A C12A C13G', 1.27),
  ('G9U U10A C12U', 1.41),
  ('U8C G9U U10G U11G C12A C13A', 1.14),
  ('U7C U10G C12U C13G', 1.11),
  ('U7A U8C U10A U11G C13A', 1.26),
  ('U7A U8G G9C U10G U11C C12A C13A', 1.38),
  ('U8C U10G U11G C12U C13A', 1.11),
  ('U7A U8C G9A C12A C13U', 1.16),
  ('U7C U8A G9A U10C C13A', 1.03),
  ('U8G U10G U11C C12G C13G', 1.1),
  ('U8A G9A U10A U11C C13G', 1.04),
  ('U7C U10C U11C C13A', 1.07),
  ('U8G U10G U11A C12G C13U', 1.34),
  ('U7G U8A G9A U10A U11G C12U C13U', 1.15),
  ('U8C G9A U10A U11A C12A', 1.3),
  ('U7A U8G U11G', 1.95),
  ('U7C G9C U11A C12U C13U', 1.05),
  ('U7A U11A C12U C13G', 1.36),
  ('U7A U11A C12U', 1.26),
  ('U7A U8A G9C U10C C13G', 1),
  ('U7A U10C U11A C12A C13U', 1.11),
  ('U7C G9U U11C C12A', 1.26),
  ('U8G G9C U10A U11G C12U', 1.2),
  ('U8C U10C U11C C12U C13G', 1.26),
  ('U7G U10G U11G', 1.53),
  ('U7C U11C C12G C13A', 1.21),
  ('U7A U8C G9A U10G U11A C12G', 1.27),
  ('U7C U8G G9C C12U C13G', 1.07),
  ('U10C C12U C13A', 1.13),
  ('U7G G9A U10G C12U C13U', 1.1),
  ('U7G G9A U10A C12U C13U', 1.22),
  ('U7A U8G G9C U10C U11G C12G C13G', 1.18),
  ('U7A U8C U11A C12G', 1.16),
  ('U7G U8A G9A U11G', 1.26),
  ('U7G G9A U10C U11C C12A', 1.26),
  ('U7C U8C G9U U10G C13U', 1.39),
  ('U7G U8G G9C U11G C12A', 1.73),
  ('U8A G9C U10A C12A', 1.27),
  ('U8G G9C U10C U11G C12U', 1.25),
  ('U7C U8C G9A U10G U11C C12G C13A', 1.17),
  ('U10G U11G C12U C13U', 1.26),
  ('U7C U8C G9C U10G U11C C12U C13U', 1.17),
  ('U7A U8G U11C C12A', 1.24),
  ('U11C', 1.53),
  ('U8C G9A U11C C12U C13A', 1.16),
  ('U7A U8A U10C C12U C13U', 1.14),
  ('U7C U8A G9U U10G U11A C12G', 1.21),
  ('U8G G9C U10A C12A', 1.23),
  ('U7G U11A C12U', 1.68),
  ('U8A U10G U11C C12U', 1.04),
  ('U10G', 1.88),
  ('U7G U8C G9A U10A U11C C12U C13A', 1.14),
  ('U8C G9A U11A C13A', 1.2),
  ('U8A G9U U11G C12U C13G', 1.19),
  ('U7G G9C U11C C12U C13G', 1.27),
  ('U7A U8G G9U U10C U11A C12A C13G', 1.37),
  ('U8A G9U U10C C12A C13U', 1.05),
  ('U7G U8A U10G U11G C12A', 1.3),
  ('U7A U8A G9C U11G C12G C13G', 1.32),
  ('U7G U8G U11C C12G C13U', 1.33),
  ('U7C U8A G9A U10C U11G C12A', 1.05),
  ('U7G U10G U11A C13A', 1.11),
  ('U8A U10C U11C C12A C13A', 1.18),
  ('U7C U10A U11C C12A C13G', 1.12),
  ('U7C U8A G9U U10A U11A C12U C13A', 1.2),
  ('U7C U10G U11G C13A', 1.15),
  ('U7A G9U U10C U11G C12U C13U', 1.27),
  ('G9C U10C U11A C12A', 1.07),
  ('U7G U8C G9A U10A C12U C13G', 1.13),
  ('U7C U8G G9U U10G U11G C12A C13G', 1.05),
  ('G9C U10C U11G', 1.41),
  ('U7A G9A U10G C13G', 1.17),
  ('U7G U8G G9A U10C C12G C13A', 1.26),
  ('U7G U8A G9U U10C U11A C12U C13A', 1.05),
  ('U7C U8A G9U U10A U11A C12G C13U', 1.28),
  ('U8G G9A U10C U11C C12G C13U', 1.05),
  ('U7G G9C U10C U11C C12A', 1.03),
  ('U7A U8A G9C U10G U11C C12A C13G', 1.08),
  ('U7G G9C U11G', 1.48),
  ('U7A U8C G9A U11C C13G', 1.08),
  ('U7C U8A G9U C12G C13U', 1.22),
  ('U7C G9U U10G U11A C12U C13G', 1.1),
  ('U7C G9A U10C C12G C13G', 1.26),
  ('U7G U8C G9C U10G U11A C12A C13G', 1.11),
  ('U7G U8G G9U U10C U11C C13G', 1.21),
  ('U7A U10C C12U C13G', 1.09),
  ('U7A G9C U10C C13G', 1.05);

Origin of the recorded values: the RNAGym collection of RNA variant scans (doi:10.1021/acssynbio.7b00057)
